Reference for the values: paper PMC9268102

# target.or.test.system: hA3 AR (Homo sapiens)
# Sequence (P0DMS8 whole entry): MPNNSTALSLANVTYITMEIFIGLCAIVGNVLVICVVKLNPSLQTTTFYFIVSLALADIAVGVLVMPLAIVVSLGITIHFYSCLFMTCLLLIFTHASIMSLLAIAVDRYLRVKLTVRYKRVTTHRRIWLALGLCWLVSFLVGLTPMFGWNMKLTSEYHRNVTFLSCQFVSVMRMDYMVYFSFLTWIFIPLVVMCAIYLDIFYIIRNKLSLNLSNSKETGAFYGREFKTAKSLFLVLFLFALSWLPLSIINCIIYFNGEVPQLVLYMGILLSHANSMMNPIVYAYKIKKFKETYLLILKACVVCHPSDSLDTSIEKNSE
# test.description: Radioligand competition binding assay at hA3 AR
# Parameters: expressed in transfected cells; host or cells: Hela-A3 cell line
# run.conditions: [3H]NECA
This section presents compounds with their documented pKi values.
Quick note: pKi values are minus log10 of concentrations in mol/L.

Please review the following examples before continuing.
{"columns": ["compound", "pKi"],
 "data": [
  ["Nc1nc(Nc2cccc(C(F)(F)F)c2)nc(-c2ccc(O)cc2)n1", 5.90],
  ["COc1ccc(Nc2nc(N)nc(-c3ccc(F)cc3)n2)cc1F [Compound 11b]", 7.25],
  ["COc1cc(Nc2nc(N)nc(-c3ccc(O)cc3)n2)ccc1Cl", 6.18],
  ["COc1ccc(-c2nc(N)nc(Nc3ccc(OC)c(F)c3)n2)cc1 [Compound 11a]", 7.88]
]}

Next up:
Query string: Any idea what pKi was measured for COc1ccc(Nc2nc(N)nc(-c3ccc(O)cc3)n2)cc1F ?
Result string: 7.26
